test_method_notes: protein stability index of a GFP-peptide fusion (yeast GPS) (PSI 1-4); higher = more stable; sorted into four equal gates, so the index is relative within each strain
study_conditions: ubr1∆
Output Fulfilled for protein stability index not less than 3; output Not fulfilled otherwise.

* NLLKVSVDICNNSKSRY [ECM29] | Not fulfilled
* EFFNPEIFHLLQPLEEG [SIN4] | Not fulfilled
* LNDLVESSFIEIDDTEA [BRR2] | Not fulfilled
* PVRTIVPISTSQTNNSF [SIR4] | Not fulfilled
* EEAGSPLVYRHELITNI [RPB9] | Fulfilled
* LSTTPTKSNRRVSHSDT [SIR4] | Fulfilled
* TTGSIFEKDLMAYFDEN [BRN1] | Fulfilled
* VKPLESSAKRSKNTAVS [SRP72] | Not fulfilled
* GSKSASKQTPQPKAPRA [ISW2] | Fulfilled
* TEKEEAVAKAAEKKVVR [RPL17A] | Fulfilled
* TPLKARQREMAEEQTKL [YLR018C/POM34] | Fulfilled
* MFIEEPTRMVRVAKGSG [SRP54] | Fulfilled
* SEHDKKRLSAALSKFLT [YML103C/NUP188] | Fulfilled
* TNIRRIIQDNISPRLVV [RRP46] | Not fulfilled
* QLASQLVDLKKELAELK [RPL35A] | Fulfilled
* VVVKNWGAETDELSMIM [RPS12] | Fulfilled
* NYVAVGDVSNLPYLDEL [QCR2] | Fulfilled

---

test_method_notes: protein stability index of a GFP-peptide fusion (yeast GPS) (PSI 1-4); higher = more stable; sorted into four equal gates, so the index is relative within each strain
study_conditions: san1∆
Recorded protein stability index values for a group of sequences are listed next.
reported_metric: protein stability index

• TPLQSQLNLNNLTPANI [PGD1] = 2.99
• RAFLIEEQKIVKKVVKE [RPL34A] = 2.99
• SSVVSEPKKPSFTFASS [YOR098C/NUP1] = 3.01
• KEKIEKLSKSATESIKN [SMC1] = 2.97

---

test_method_notes: protein stability index of a GFP-peptide fusion (yeast GPS) (PSI 1-4); higher = more stable; sorted into four equal gates, so the index is relative within each strain
study_conditions: pdr5∆
reported_metric: protein stability index

• EENNYQYGYSGSSAGMN [SNF6] = 2.16
• RLYLKDQTNHIESDSIL [ECM29] = 2.76
• QNDFLFSVGESLSVVAG [ECM29] = 3.08
• CTFSMEPYHFISNYNTK [SRB8] = 2.09
• NKNLPFVWLSSEENIGS [SWI1] = 1.84
• DKFSPEDGLGPLMAKSV [ARP7] = 3.06
• IDKLMLSPSDQFAPAFL [SSN2] = 2.24
• KPLGTTRAMEYLKFREL [RPB2] = 2.86
• YESQTFSSKNEWRKSAI [PRP8] = 3.28
• MTEHETKDKAKKIREIY [BRR2] = 2.69
• DINTVNTNLMNGVNVQI [GRR1] = 3
• VFHAAFEGDSNMLICAP [BRR2] = 2.41
• NSINKTTVPFKESDDPS [POP1] = 2.93
• HDIAYSKDGLPNKVKTE [RRP6] = 2.51
• GKVRLWKATYSNEFKCM [YGL100W/SEH1] = 1.84
• ASFGKNLQIRQLFNWCL [DSN1] = 1.44
• TREKVLEDKLRAVLTPL [RRP46] = 3.05
• NYIINDIKKNNKIKLNI [SRB8] = 3.1
• DDHSQVINPQQLLKGLS [DSN1] = 2.98
• KEHAPYTDELEEDVYLD [FAS2] = 3.48
• RVSHSDTNSSKPKNTKE [SIR4] = 3.08
• VVEACGNIVAELAQDPQ [YCS4] = 3.38
• LEEITQYEHLIKGIREY [YDL116W/NUP84] = 3.07
• SRPASYGYFSVGKRVPI [SIR4] = 2.14
• HMISQEGIKETQAKRIF [SWI1] = 3.53
• QIENLNEVCLEKENRFE [SMC4] = 3.48
• CRNILGVTSLIKNLGLP [RPP1] = 1.58
• RTHFKRMRFPPFDDDEP [PRP8] = 3.03
• GTPPMLHQRTHKQVYPL [DSN1] = 2.87
• LSKMENVNLDDYPDDSG [NAS6] = 3.02
• EFFNPEIFHLLQPLEEG [SIN4] = 1.84
• GLTSRLQRQQRKSKLNL [POP4] = 3.34
• TNENGETDDNIETVMTQ [SRB4] = 2.53
• NEKEQLSFINPKTGKVE [SEC65] = 2.89
• ESKPFSSDALSKEKANF [SIR4] = 1.59
• NTGLLNKANIQALIHGL [RPN11] = 2.88
• ESSSEDDYEDQDDDDYV [IRR1] = 3.52
• NILALNLVSLLIIVTRK [YML031W/NDC1] = 1.35
• EKTINDLQRTQTLSEKE [YIL149C/MLP2] = 3.03
